Values from patent US20060110388A1

biological target: T1, β Amyloid peptide 1-40 (human, UniProt P05067 672-711); test: BIAcore; against m266
T1 construct: domain: β Amyloid peptide 1-40; Biotinylated peptide 1-40 (Biosource) on avidin Sepharose only captured free antibody in KinExA; also called Aβ 1-40; human Aβ (1-40)
T1 sequence (P05067 672-711 limits assumed): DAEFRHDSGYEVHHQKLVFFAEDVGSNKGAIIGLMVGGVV
Overview of recorded Fold Increase (kon) for various binders
Return type: number; implicit unit fold.

Examples with their reported Fold Increase (kon) follow.
1A12 monoclonal antibody (IgG1) (antibody, V domains shown) VH: EVQLVESGGGLVKPGGSLRLSCAASGFTFSRYSMSWVRQAPGKGLEWVGQINIRGNNTYYPDTVKGRFTISRDDSKNTLYLQMNSLKTEDTAVYYCTTGDFWGQGTLVTVSS VL: DIVMTQTPLSLSVTPGQPASISCRSSQSLIYSDGNAYLHWYLQKPGQSPQLLIYKVSNRFSGVPDRFSGSGSGTDFTLKISRVEAEDVGVYYCSQSTHSPWTFGGGTKVEIK = 3
1A1 monoclonal antibody (IgG1) (antibody, V domains shown) VH: EVQLVESGGGLVKPGGSLRLSCAASGYTFSRYSMSWVRQAPGKGLEWVGQINIRGNNTYYPDTVKGRFTISRDDSKNTLYLQMNSLKTEDTAVYYCTTGDFWGQGTLVTVSS VL: DIVMTQTPLSLSVTPGQPASISCSSSQSLIYSDGNAYLHWYLQKPGQSPQLLIYKVSNRFSGVPDRFSGSGSGTDFTLKISRVEAEDVGVYYCTQSTHSPWTFGGGTKVEIK = 3
1B7 monoclonal antibody (IgG1) (antibody, V domains shown) VH: EVQLVESGGGLVKPGGSLRLSCAASGFTFSRYSMSWVRQAPGKGLEWVGQINSRGNSTYYPDTVKGRFTISRDDSKNTLYLQMNSLKTEDTAVYYCTTGDFWGQGTLVTVSS VL: DIVMTQTPLSLSVTPGQPASISCRSSQSLIYSDGNAYLHWYLQKPGQSPQLLIYKVSNRFSGVPDRFSGSGSGTDFTLKISRVEAEDVGVYYCSQSTHSPWTFGGGTKVEIK = 5

Turning now to a further record.
In: Returns the measured Fold Increase (kon) for the input binder. Input: 6C3 monoclonal antibody (IgG1) (antibody, V domains shown) VH: EVQLVESGGGLVKPGGSLRLSCAASGFTFSRYSMSWVRQAPGKGLEWVGQINSRGNSTYYPDTVKGRFTISRDDSKNTLYLQMNSLKTEDTAVYYCTTGDFWGQGTLVTVSS VL: DIVMTQTPLSLSVTPGQPASISCRSSQSLIYSDGNAYLHWYLQKPGQSPQLLIYKVSNRFSGVPDRFSGSGSGTDFTLKISRVEAEDVGVYYCTQSTHSPWTFGGGTKVEIK
Out: 5
